System: DMS-273
assay-info: NCI tumour cell line growth inhibition, 48 h
The source made the active and inactive calls. Cut-off read from the data, not from the text of the source: active = GI50 up to about 1.1 µM and inactive = higher.
Form entry, call: pick from active, inactive

[ask] GET /call?item= Nc1ccc(C(=O)NN2C(=O)C(Cl)C2c2ccccc2Cl)cc1 (stereo not given) returns the recorded outcome of this test.
[reply] inactive

[ask] I'd appreciate the recorded outcome for O=C(OCc1ccccc1)N1N=NC2C1C1CC(OCc3ccccc3)(OCc3ccccc3)C2O1 (stereo not given) from this test.
[reply] inactive

[ask] Fill in: this test's call for "Sc1nnc(/C=C/c2ccc(Cl)c(Cl)c2)[nH]1" is ___
[reply] inactive

[ask] Query: recorded result category for "c1ccc2c(c1)c1ccccc1c1n[se]nc21" in this test
[reply] inactive

[ask] # lookup: test call for "C#CC[C@@]12CC(=O)C[C@@H]1CCC1(C2)OCCO1.C#CC[C@]12CC(=O)CC[C@H]1CC(=O)C2"
[reply] inactive

[ask] For this compound, state the assay outcome: O=C(CCC1CCCCN1)Nc1ccc2c(c1)C(=O)c1ccc(NC(=O)CCN3CCCCC3)cc1C2=O (stereo not given)
[reply] inactive

[ask] Tell me the assay call for "CC#C[P+](c1ccccc1)(c1ccccc1)c1ccccc1" please.
[reply] inactive

[ask] Record request — test call for "CC(C)[C@H]1CO[C@]2(C)[C@@H]3CN(Cc4ccccc4)C[C@@H]3C(=O)N12"
[reply] inactive

[ask] Recorded call for "COc1ccc(-c2cc(=O)c3c(OC)cccc3o2)c(OC)c1OC" ?
[reply] inactive

[ask] Kindly provide the recorded test outcome for the following compound: "COC(=O)c1cccc2cccc(C(=O)Nc3ccc(Cl)cc3)c12"
[reply] active

[ask] // return assay outcome for "O=S(=O)(N/N=C/c1cccc(Cl)c1Cl)c1ccccc1"
[reply] inactive

[ask] Can you look up the reported call for CC1OC(n2cc(Cl)c(=O)[nH]c2=O)C=C(OC(=O)c2ccccc2)C1=O (stereo not given) for me?
[reply] inactive

[ask] Kindly provide the recorded test outcome for the following compound: "CCCCCCCCCCCC1=C(O)C(=O)C=C(O)C1=O"
[reply] inactive

[ask] Please let me know the test result on file for "Cc1cc2c(=O)cc(-c3ccc(F)cc3)oc2c(C(=O)O)c1C" .
[reply] inactive

[ask] Name the outcome recorded for "O=NN(CCCl)C(=O)N[C@H]1CC[C@@H](C(=O)O)CC1" in the assay.
[reply] inactive

[ask] Call for entry "COc1ccc(/C=C(\NC(=O)c2ccccc2)c2nc3ccccc3[nH]2)cc1" :
[reply] inactive

[ask] GET /call?item= "N#C/C(=C/c1ccc([N+](=O)[O-])o1)c1ccccc1" returns the recorded outcome of this test.
[reply] inactive

[ask] How was COC(=O)C12Oc3ccc(-c4ccc5c(c4O)C(=O)C4=CCC(C)C(O)C4(C(=O)OC)O5)c(O)c3C(=O)C1=CCC(C)C2O (stereo not given) classified in this test?
[reply] inactive

[ask] Just curious, what result did "Oc1ncnc2c1nnn2CCCCCCCCCCCCn1nnc2c(O)ncnc21" get here?
[reply] inactive

[ask] // return assay outcome for Cc1ccc(N(C(=O)CC(=O)N2N=C(c3ccccc3)C(/N=N/c3ccc([N+](=O)[O-])cc3)C2=O)C(=O)c2ccc(Cl)cc2)cc1 (stereo not given)
[reply] inactive

[ask] // return assay outcome for C[C@]12CC/C(=N\OC(=O)Nc3ccccc3)C=C1CC[C@@H]1C2CC[C@@]2(C)C1CC[C@@H]2OC(=O)Nc1ccccc1 (stereo not given in full)
[reply] inactive

[ask] Call for entry O=C(Cc1ccccc1)NN1C(=O)C(Cl)C1c1cccc([N+](=O)[O-])c1 (stereo not given) :
[reply] inactive

[ask] Hi team, can someone confirm the assay call for "COc1cc(Nc2nc3cc(C)ccc3nc2-c2ccccc2)cc(OC)c1OC" ?
[reply] inactive

[ask] Hi, do you know how "COc1cc2c(oc(=O)c3c4occc4cc(OC)c23)c2cccc(O)c12" came out in this test?
[reply] inactive

[ask] For "O=c1[nH]c(-c2ccc(-c3nc4cc([N+](=O)[O-])ccc4c(=O)[nH]3)cc2)nc2cc([N+](=O)[O-])ccc12" , which call appears in the assay record?
[reply] inactive

[ask] I'd appreciate the recorded outcome for BrC1=CC=C2NC=CC3=CC=NC1C32 (stereo not given) from this test.
[reply] inactive

[ask] State the result this test recorded for "O=C(O)c1ccccc1C(=O)c1ccco1" .
[reply] inactive

[ask] Recorded test outcome, item "CC(C)(C)C1=CC(=N/N=c2\scc(-c3ccccc3)n2-c2ccccc2)C=C(C(C)(C)C)C1=O"
[reply] inactive

[ask] Hi, sorry to bother you, what did the test record for "COc1ccccc1NC(=O)NS(=O)(=O)c1ccccc1" ?
[reply] inactive

[ask] Please share the test call associated with "O=C1Cc2c([nH]c3ccccc23)-c2ccccc2N1" .
[reply] inactive

[ask] Could you kindly confirm the outcome this assay logged for "COC(=O)c1cc(Br)c(Br)n1C" ?
[reply] inactive

[ask] Returns: the outcome recorded for Nc1nn(CC(O)CO)c(=O)s1 (stereo not given) in this assay.
[reply] inactive

[ask] Write down the call the test reported for this compound. Item: "O=C1CCCc2ccc([N+](=O)[O-])c(O)c21"
[reply] inactive

[ask] Outcome logged for "Cc1cccc(C(C)C)c1NC(=O)C(=O)CC(=O)c1c(C)[n+]([O-])c2ccccc2[n+]1[O-]" in this assay:
[reply] inactive

[ask] # fetch the recorded call for "C/C(CN1C(=O)c2ccccc2C1=O)=N\NS(C)(=O)=O" here
[reply] inactive

[ask] Given NC1=C2C(Br)=CN([C@@H]3O[C@H](CO)[C@@H](O)[C@@H]3O)C2C(=O)N=N1 (stereo not given in full) , state the outcome it received in this test.
[reply] inactive

[ask] Check the results log: what was the call for "C#CC(C)(C)Oc1cc(O)c2c(=O)c3ccccc3n(C)c2c1" ?
[reply] inactive

[ask] For "COC(=O)C(=C/c1ccc(OC)cc1)/C(C(=O)O)=C(/C)c1ccccc1" , which call appears in the assay record?
[reply] inactive

[ask] Fill in: this test's call for "CC(C)(C)c1cc2c(OP(c3ccccc3)c3ccccc3)c(c1)Cc1cc(C(C)(C)C)cc(c1OP(c1ccccc1)c1ccccc1)Cc1cc(C(C)(C)C)cc(c1OP(c1ccccc1)c1ccccc1)Cc1cc(C(C)(C)C)cc(c1OP(c1ccccc1)c1ccccc1)C2" is ___
[reply] inactive

[ask] Hey, what did the test say about "C=C/C(C)=C/[C@H](C)C(=O)C[C@H](O)CC1CC(=O)NC(=O)C1" ?
[reply] inactive

Data origin, for the record: ChEMBL document CHEMBL1201862
